Reference source: patent US20260265233A1

- Measurement Target: human RXFP1 (Homo sapiens, UniProt Q9HBX9)
- Sequence (Q9HBX9 1-757): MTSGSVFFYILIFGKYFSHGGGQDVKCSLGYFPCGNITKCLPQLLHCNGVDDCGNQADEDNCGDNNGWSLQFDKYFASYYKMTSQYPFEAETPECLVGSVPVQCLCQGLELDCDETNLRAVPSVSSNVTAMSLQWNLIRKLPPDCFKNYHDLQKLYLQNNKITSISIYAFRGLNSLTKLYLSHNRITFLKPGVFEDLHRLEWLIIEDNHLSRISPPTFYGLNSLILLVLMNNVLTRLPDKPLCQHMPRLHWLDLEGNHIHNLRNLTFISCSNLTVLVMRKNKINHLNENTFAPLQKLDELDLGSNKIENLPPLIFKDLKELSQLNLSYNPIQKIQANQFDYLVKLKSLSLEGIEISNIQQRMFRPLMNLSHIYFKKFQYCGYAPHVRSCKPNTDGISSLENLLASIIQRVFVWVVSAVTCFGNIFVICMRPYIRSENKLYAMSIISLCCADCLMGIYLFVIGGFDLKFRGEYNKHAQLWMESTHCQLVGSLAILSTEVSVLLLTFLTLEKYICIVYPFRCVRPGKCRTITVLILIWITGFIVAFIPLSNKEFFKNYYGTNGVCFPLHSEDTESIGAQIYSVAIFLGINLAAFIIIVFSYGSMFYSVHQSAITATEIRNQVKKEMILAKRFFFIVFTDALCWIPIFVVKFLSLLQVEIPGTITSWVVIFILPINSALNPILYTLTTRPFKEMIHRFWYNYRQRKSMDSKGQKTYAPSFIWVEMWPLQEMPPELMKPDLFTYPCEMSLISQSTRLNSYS
- Experiment Notes: hRXFP1 HEK293 cAMP assay (HTRF)
- Experimental Setup: HEK293 cells stably expressing human RXFP1; 30 min at rt; intracellular cAMP by HTRF
- Method: RXFP1 Cyclic Adenosine Monophosphate (cAMP) Assays. […] The level of intracellular cAMP was determined using the HTRF HiRange cAMP assay reagent kit (Cisbio) according to manufacturer's instructions. […] After a 1 h rt incubation, time-resolved fluorescence intensity was measured using the Envision (Perkin-Elmer) at 400 nm excitation and dual emission at 590 nm and 665 nm. […]
Assay Endpoint: EC50 (nM)
I only need the number, in nM, no unit after it.

- COc1cc(F)c(C(=O)N2CCC(O)CC2)cc1C(=O)Nc1c(C(=O)Nc2ccc(F)c(C(F)(F)F)c2)sc2cc(C(F)(F)F)ccc12: 349

Look up and state reported EC50 for COc1ccc(-c2cc(C(=O)O)ccc2F)cc1C(=O)Nc1c(C(=O)Nc2ccc(F)c(C(F)(F)F)c2)sc2ccc(C(F)(F)F)cc12
2150

Could you please provide reported EC50 for COc1cc(F)c(C(=O)N2CC(S(C)(=O)=O)C2)cc1C(=O)Nc1c(C(=O)Nc2ccc(F)c(C(F)(F)F)c2)sc2cc(C(F)(F)F)ccc12 ? Thanks!
48.7

Please supply the value of reported EC50 for the item COc1ccc(C2=NOC3CC(NC(=O)C(C)(C)O)CC23)cc1C(=O)Nc1c(C(=O)Nc2ccc(F)c(C(F)(F)F)c2)sc2cc(C(F)(F)F)ccc12 (stereo not drawn) [Example 260]
1310

Return the recorded EC50 value; entry: COc1ncc(N2CC3(COC3)C2)cc1C(=O)Nc1c(C(=O)Nc2ccc(F)c(C(F)(F)F)c2)sc2cc(C(F)(F)F)ccc12
4650

For the compound COc1ccc(C2CCN(C(=O)C(F)F)C2)cc1C(=O)Nc1c(C(=O)Nc2ccc(F)c(C(F)(F)F)c2)sc2cc(C(F)(F)F)ccc12 (stereo not drawn) , give its reported EC50.
1650

Report EC50 for COc1ccc(C2CCN(C(=O)C(C)(C)CO)C2)cc1C(=O)Nc1c(C(=O)Nc2ccc(F)c(C(F)(F)F)c2)sc2cc(C(F)(F)F)ccc12 (single isomer, unassigned) [Example 150]
228

For the compound COc1ccc(CCCO)cc1C(=O)Nc1c(C(=O)Nc2ccc(F)c(C(F)(F)F)c2)sc2cc(Cl)ncc12 , give its measured EC50 value.
400

Tell me EC50 reported for COc1ccc(C2=NOC3(CCN(C(=O)C(C)(C)O)CC3)C2)cc1C(=O)Nc1c(C(=O)Nc2ccc(F)c(C(F)(F)F)c2)sc2cc(C(F)(F)F)ccc12
532

Tell us which EC50 value is on record for COc1ccc(-c2ccc(N3CCOCC3)nc2)cc1C(=O)Nc1c(C(=O)Nc2ccc(F)c(C(F)(F)F)c2)sc2cc(C(F)(F)F)ccc12
254

Specify measured EC50 for COc1ccc(C2=NC(C(=O)N3CC(C)(O)C3)CO2)cc1C(=O)Nc1c(C(=O)Nc2ccc(F)c(C(F)(F)F)c2)sc2cc(C(F)(F)F)ccc12 (stereo not drawn) .
44.1

// fetch EC50 given entry COc1ccc(C(=O)NCCS(C)(=O)=O)cc1C(=O)Nc1c(C(=O)Nc2ccc(F)c(C(F)(F)F)c2)sc2cc(Cl)ncc12
450
